Exercise: state measured pIC50 for each of the molecules provided.
Target system: Beta Secretase enzyme (BACE) (Homo sapiens)
Sequence (P56817 46-501): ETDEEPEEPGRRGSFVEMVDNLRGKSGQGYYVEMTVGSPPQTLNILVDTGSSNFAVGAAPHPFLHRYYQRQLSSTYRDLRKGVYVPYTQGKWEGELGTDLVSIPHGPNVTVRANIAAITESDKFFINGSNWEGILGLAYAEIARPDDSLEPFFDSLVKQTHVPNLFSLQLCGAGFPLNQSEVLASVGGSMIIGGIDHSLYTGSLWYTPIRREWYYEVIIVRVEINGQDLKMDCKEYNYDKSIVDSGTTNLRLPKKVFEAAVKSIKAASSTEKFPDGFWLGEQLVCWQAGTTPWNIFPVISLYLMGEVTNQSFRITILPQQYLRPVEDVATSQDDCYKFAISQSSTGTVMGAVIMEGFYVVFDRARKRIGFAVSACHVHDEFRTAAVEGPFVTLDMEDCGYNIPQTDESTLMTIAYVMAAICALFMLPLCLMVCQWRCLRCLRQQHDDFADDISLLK
Assay overview: In vitro enzymatic BACE FRET (fluorescence resonance energy transfer) assay;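 also: fluorescence read after 1 h with 50 nM quenched peptide substrate spanning the BACE cleavage site, in pH 4.2 acetate buffer containing 10% DMSO and nonionic detergent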
Assay type: biochemical
Condition description: BACE enzyme FRET assay; read-out: BACE1 FRET assay (IC50)
Formally, pIC50 is defined as -log10 of the concentration c, with c in mol/L.

May I ask what pIC50 has been recorded for CC(=O)NC(Cc1ccc(F)cc1)C(O)CNC1CC2(CC(C(=O)O)C2)Oc2ncc(CC(C)(C)C)cc21 (stereo not drawn) [compound 263] ? 7.97

May I ask what pIC50 has been recorded for CC(=O)N[C@@H](Cc1ccc(F)cc1)[C@H](O)CN[C@H]1CC2(CCC2)Oc2ncc(C[C@@H](C)C(F)F)cc21 [compound 199] ? 7.35

May I ask what pIC50 has been recorded for CO[C@@H](C)C(=O)N[C@@H](Cc1cc(F)c2c(c1)OCO2)[C@H](O)CN[C@H]1CC2(CCC2)Oc2ncc(CC(C)(C)C)cc21 [compound 304] ? 7.42

---

Exercise: state measured IC50 for each of the compounds provided.
Test system: Aβ40 in conditioned medium of cells stably expressing Amyloid Precursor Protein (APP)
Assay overview: In vitro BACE cell-based assay (Aβ40 in conditioned medium, sandwich ELISA);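 also: compounds added as a dilution series, secreted peptide quantified by europium time-resolved fluorescence readout, potency fitted from percent of control versus compound concentration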
Condition description: Homo sapiens, HEK293, HEK cell-based assay, IC50's in uM; read-out: HEK cell assay
Give the value in µM but do not write µM after it.

May I ask what IC50 has been recorded for COCC(=O)N[C@@H](Cc1cc(F)cc(F)c1)[C@H](O)CN[C@H]1CC2(CCC2)Oc2c(-c3ccncc3)cc(C3CC3)cc21 ? 0.029

May I ask what IC50 has been recorded for C#Cc1cccc(C[C@H](NC(=O)COC)[C@H](O)CN[C@H]2CC3(CCC3)Oc3ncc(CC(C)C)cc32)c1 ? 0.009

May I ask what IC50 has been recorded for COCC(=O)N[C@@H](Cc1cc(F)cc(-c2nccs2)c1)[C@H](O)CN[C@H]1CC2(CCC2)Oc2ncc([C@@H]3CC3(C)C)cc21 ? 0.006

May I ask what IC50 has been recorded for COC(OC)C(=O)N[C@@H](Cc1cccc(F)c1)[C@H](O)CN[C@H]1CC2(CCC2)Oc2ncc(CC(C)(F)F)cc21 ? 0.017

May I ask what IC50 has been recorded for C#Cc1cccc(C[C@H](NC(=O)COC)[C@H](O)CN[C@H]2CC3(CCC3)Oc3ncc(CC(C)(C)C(F)(F)F)cc32)c1 ? 0.028

May I ask what IC50 has been recorded for COCC(=O)N[C@@H](Cc1cccc(-c2ncc(C)s2)c1)[C@H](O)CN[C@H]1CC2(CCC2)Oc2ncc(CC(C)(C)C)cc21 ? 0.071

May I ask what IC50 has been recorded for COCC(=O)N[C@@H](Cc1cccc(Br)c1)[C@H](O)CN[C@H]1CC2(CCC2)Oc2ncc(CC(C)C)cc21 ? 0.013

May I ask what IC50 has been recorded for COCC(=O)N[C@@H](Cc1cc(F)cc(-c2nccs2)c1)[C@H](O)CNC1CC2(CCC2)Oc2ncc(CC(C)(F)F)cc21 (stereo partly shown) ? 0.018

May I ask what IC50 has been recorded for CO[C@H](C)C(=O)N[C@@H](Cc1ccc(F)c(-c2nccs2)c1)[C@H](O)CN[C@H]1CC2(CCC2)Oc2ncc(CC(C)C)cc21 ? 0.105

May I ask what IC50 has been recorded for CC#Cc1ccc2c(c1)[C@@H](NC[C@@H](O)[C@H](Cc1cc(F)cc(-c3nccs3)c1)NC(=O)COC)CC1(CCC1)O2 ? 4.15

May I ask what IC50 has been recorded for CCC(=O)N[C@@H](Cc1ccc2c(c1)OCO2)[C@H](O)CN[C@H]1CC2(CCC2)Oc2ncc(CC(C)(C)C)cc21 ? 0.014

May I ask what IC50 has been recorded for COCC(=O)N[C@@H](Cc1ccc(-c2nccs2)c(F)c1)[C@H](O)CN[C@H]1CC2(CCC2)Oc2ncc(CC(C)C)cc21 ? 0.451

May I ask what IC50 has been recorded for CO[C@H](C)C(=O)N[C@@H](Cc1cc(F)cc(-c2nccs2)c1)[C@H](O)CNC1CC2(CCC2)Oc2ncc(CC(C)(F)F)cc21 (stereo partly shown) ? 0.054

---

Exercise: state measured RLM for each of the molecules provided.
Assay overview: Microsomal stability assay, rat liver microsomes;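 also: rat liver microsomes (0.25 mg/mL) with about 1 µM compound plus 1 mM NADPH, pH 7.4, 37 °C for 30 min, parent left measured by LC-MS/MS against 0 min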
Condition description: rat liver microsomal data
Give the value in µL/min/mg but do not write µL/min/mg after it.

May I ask what RLM has been recorded for COCC(=O)N[C@@H](Cc1cc(F)cc(-c2nccs2)c1)[C@H](O)CNC1CC2(CCC2)Oc2ncc(CC(C)(F)F)cc21 (stereo partly drawn) ? 33

May I ask what RLM has been recorded for COCC(=O)N[C@@H](Cc1ccccc1)[C@H](O)CN[C@H]1CC2(CCC2)Oc2c1cc(CC(C)(C)C)nc2-c1ccncc1 ? 192

May I ask what RLM has been recorded for COCC(=O)N[C@@H](Cc1cc(F)cc(-c2nccs2)c1)[C@H](O)CN[C@H]1CC2(CCC2)Oc2ncc([C@@H]3CC3(C)C)cc21 ? 67

May I ask what RLM has been recorded for CO[C@H](C)C(=O)N[C@@H](Cc1cc(Cl)ccc1F)[C@H](O)CN[C@H]1CC2(CCC2)Oc2ncc(CC(C)(C)C)cc21 ? 543

May I ask what RLM has been recorded for COCC(=O)N[C@@H](Cc1cc(F)cc(F)c1)[C@H](O)CN[C@H]1CC2(CCC2)Oc2c(-c3cccnc3)cc(CC(C)(C)C)cc21 ? 775

May I ask what RLM has been recorded for CC(C)(C)Cc1cnc2c(c1)[C@@H](NC[C@@H](O)[C@H](Cc1ccc3c(c1)OCO3)NC(=O)CC1CCS(=O)(=O)C1)CC1(CCC1)O2 (stereo partly drawn) ? 141

May I ask what RLM has been recorded for COCC(=O)N[C@@H](Cc1cccc(F)c1)[C@H](O)CN[C@H]1CC2(CCC2)Oc2nc3c(cc21)[C@H](C(C)C)CO3 ? 399

May I ask what RLM has been recorded for CCO[C@@H](C)C(=O)N[C@@H](Cc1ccc2c(c1)OCO2)[C@H](O)CN[C@H]1CC2(CCC2)Oc2ncc(CC(C)(C)C)cc21 ? 140

May I ask what RLM has been recorded for CO[C@H](C)C(=O)N[C@@H](Cc1cccc(C#N)c1)[C@H](O)CN[C@H]1CC2(CC(F)(F)C2)Oc2ncc(CC(C)(C)C)cc21 ? 536

May I ask what RLM has been recorded for CCCc1cnc2c(c1)[C@@H](NC[C@H](O)[C@@H](Cc1cc(F)cc(-c3nccs3)c1)NC(=O)[C@@H](C)OC)CC1(CCC1)O2 ? 276

May I ask what RLM has been recorded for CC(C)Cc1cnc2c(c1)[C@@H](NC[C@H](O)[C@@H](Cc1cccc(-c3nccs3)c1)NC(=O)[C@H]1CCCO1)CC1(CCC1)O2 ? 64

May I ask what RLM has been recorded for COCC(=O)N[C@@H](Cc1cccc(C#N)c1)[C@H](O)CN[C@H]1CC2(CC(F)(F)C2)Oc2ncc(CC(C)(C)C)cc21 ? 560

May I ask what RLM has been recorded for CC(C)(C)Cc1cnc2c(c1)[C@@H](NC[C@@H](O)[C@H](Cc1cc(F)cc(-c3nccs3)c1)NC(=O)[C@H]1CCCO1)CC1(CCC1)O2 ? 64

May I ask what RLM has been recorded for CCOCC(=O)N[C@@H](Cc1ccc2c(c1)OCO2)[C@H](O)CN[C@H]1CC2(CCC2)Oc2ncc(CC(C)(C)C)cc21 ? 112

May I ask what RLM has been recorded for COCC(=O)N[C@@H](Cc1cccc(F)c1)[C@H](O)CN[C@H]1CC2(CCC2)Oc2c(-c3cscn3)cc(CC(C)C)cc21 ? 503

May I ask what RLM has been recorded for CC(C)(C)Cc1cnc2c(c1)[C@@H](NC[C@@H](O)[C@H](Cc1cc(F)cc(-c3nccs3)c1)NC(=O)C1CCC1)CC1(CCC1)O2 ? 81

May I ask what RLM has been recorded for CO[C@H](C)C(=O)N[C@@H](Cc1ccc(F)cc1)[C@H](O)CN[C@H]1CC2(CCC2)Oc2c1cc(CC(C)(C)C)nc2-c1ccncc1 ? 108

May I ask what RLM has been recorded for COCC(=O)N[C@@H](Cc1cc(F)cc(F)c1)[C@H](O)CN[C@H]1CC2(CCC2)Oc2c(-c3nccs3)cc(CC(C)C)cc21 ? 775

May I ask what RLM has been recorded for COCC(=O)N[C@@H](Cc1cc(F)cc(F)c1)[C@H](O)CN[C@H]1CC2(CCC2)Oc2c(-c3ccncc3)cc(CC(C)(C)C)cc21 ? 82

May I ask what RLM has been recorded for CO[C@H](C)C(=O)N[C@@H](Cc1cc(F)cc(F)c1)[C@H](O)CN[C@H]1CC2(CCC2)Oc2c1cc(CC(C)(C)C)nc2-n1ccnc1 ? 62

May I ask what RLM has been recorded for CCCc1cnc2c(c1)[C@@H](NC[C@@H](O)[C@H](Cc1cc(F)cc(-c3nccs3)c1)NC(=O)[C@@H](C)OC)CC1(CCC1)O2 ? 101

May I ask what RLM has been recorded for CC(C)(C)Cc1cnc2c(c1)[C@@H](NC[C@@H](O)[C@H](Cc1cccc(-c3nccs3)c1F)NC(=O)[C@@H]1CCCO1)CC1(CCC1)O2 ? 153

May I ask what RLM has been recorded for COCC(=O)N[C@@H](Cc1cc(F)cc(F)c1)[C@H](O)CN[C@H]1CC2(CCC2)Oc2c1cc(CC(C)C)cc2-n1ccnc1 ? 188.5

May I ask what RLM has been recorded for COCC(=O)N[C@@H](Cc1ccc2c(c1)OCO2)[C@H](O)CN[C@H]1CC2(CCC2)Oc2nc(F)c(CC(C)(C)C)cc21 ? 106

src = patent US8163909B2
